Hey, just so you know, these numbers are from patent EP4737454A1.

Kindly supply the reported EC50 values for the records listed here.
assayed_target: Human GLP-1R (Homo sapiens)
Sequence (P43220 24-463): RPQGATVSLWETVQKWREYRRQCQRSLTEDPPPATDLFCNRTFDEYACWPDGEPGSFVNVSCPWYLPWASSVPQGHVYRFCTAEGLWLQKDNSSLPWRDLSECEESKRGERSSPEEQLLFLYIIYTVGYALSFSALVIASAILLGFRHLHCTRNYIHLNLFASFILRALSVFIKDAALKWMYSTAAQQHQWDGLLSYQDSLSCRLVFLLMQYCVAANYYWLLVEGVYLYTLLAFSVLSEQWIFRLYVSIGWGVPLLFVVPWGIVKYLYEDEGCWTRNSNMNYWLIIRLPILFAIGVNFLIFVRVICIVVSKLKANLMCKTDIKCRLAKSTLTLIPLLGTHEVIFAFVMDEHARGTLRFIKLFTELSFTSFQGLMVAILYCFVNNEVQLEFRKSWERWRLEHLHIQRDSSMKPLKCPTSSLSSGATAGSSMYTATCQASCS
test_name: cAMP level determination in human GLP-1R stably transfected HEK293T cells (HTRF cAMP kit)
condition: 37°C 30 min
Report field: quantity (unit follows the number).

Problem: Supply measured EC50 of Cc1cc(-n2nc3c(c2-n2ccn(-c4ccc(C#N)c(OC(F)F)c4)c2=O)[C@H](C)N(C(=O)c2cc4cc(C5CCOC(C)(C)C5)ccc4n2[C@@]2(c4nc(=O)o[nH]4)C[C@@H]2C)CC3)cc(C)c1F (some centres unmarked) in your reply.
Solution: 17.6 nM

Problem: Supply measured EC50 of Cc1cc(-n2nc3c(c2-n2ccn(-c4ccc5c(c4)CCS5(=O)=O)c2=O)[C@H](C)N(C(=O)c2cc4cc([C@@H]5CCOC(C)(C)C5)ccc4n2[C@@]2(c4nc(=O)o[nH]4)C[C@@H]2C)CC3)cc(C)c1F [Compound 56a] in your reply.
Solution: 241 nM

Problem: Supply measured EC50 of Cc1cc(-n2nc3c(c2-n2ccn(-c4ccc5c(c4)S(=O)(=O)CC5)c2=O)[C@H](C)N(C(=O)c2cc4cc(C5CCOC(C)(C)C5)ccc4n2[C@@]2(c4nc(=O)o[nH]4)C[C@@H]2C)CC3)cc(C)c1F (some centres unmarked) in your reply.
Solution: 15.8 nM

Problem: Supply measured EC50 of Cc1cc(-n2nc3c(c2-n2ccn(-c4ccc(C(=O)N(C)C5CC5)c(C)c4F)c2=O)[C@H](C)N(C(=O)c2cc4cc([C@H]5CCOC(C)(C)C5)ccc4n2[C@@]2(c4nc(=O)o[nH]4)C[C@@H]2C)CC3)cc(C)c1F in your reply.
Solution: 8.97 nM

Problem: Supply measured EC50 of Cc1cc(-n2nc3c(c2-n2ccn(-c4ccc(N(C)C5CC5)c(Cl)c4)c2=O)[C@H](C)N(C(=O)c2cc4cc([C@H]5CCOC(C)(C)C5)ccc4n2[C@@]2(c4noc(=O)[nH]4)C[C@@H]2C)CC3)cc(C)c1F [Compound 67b] in your reply.
Solution: 11.2 nM

Problem: Supply measured EC50 of Cc1cc(-n2nc3c(c2-n2ccn(-c4ccc(C(=O)N(C)C5CC5)c(OC(F)(F)F)c4F)c2=O)[C@H](C)N(C(=O)c2cc4cc([C@H]5CCOC(C)(C)C5)ccc4n2[C@@]2(c4nc(=O)o[nH]4)C[C@@H]2C)CC3)cc(C)c1F in your reply.
Solution: 4.48 nM

Problem: Supply measured EC50 of Cc1cc(-n2nc3c(c2-n2ccn(-c4ccc(C#N)cc4F)c2=O)[C@H](C)N(C(=O)c2cc4cc([C@H]5CCOC(C)(C)C5)ccc4n2[C@@]2(c4nc(=O)o[nH]4)C[C@@H]2C)CC3)cc(C)c1F [Compound 81b] in your reply.
Solution: 3.92 nM

Problem: Supply measured EC50 of Cc1cc(-n2nc3c(c2-n2ccn(-c4cc(F)cc(C#N)c4)c2=O)[C@H](C)N(C(=O)c2cc4cc(C5CCOC(C)(C)C5)ccc4n2[C@@]2(c4nc(=O)o[nH]4)C[C@@H]2C)CC3)cc(C)c1F (some centres unmarked) in your reply.
Solution: 43.5 nM

Problem: Supply measured EC50 of Cc1cc(-n2nc3c(c2-n2ccn(-c4ccc(C(=O)N(C)C5CC5)c(F)c4F)c2=O)[C@H](C)N(C(=O)c2cc4cc([C@H]5CCOC(C)(C)C5)ccc4n2[C@@]2(c4nc(=O)o[nH]4)C[C@@H]2C)CC3)cc(C)c1F in your reply.
Solution: 7.69 nM

Problem: Supply measured EC50 of Cc1cc(-n2nc3c(c2-n2ccn(-c4ccccc4C(=O)N(C)C4CC4)c2=O)[C@H](C)N(C(=O)c2cc4cc(C5CCOC(C)(C)C5)ccc4n2[C@@]2(c4nc(=O)o[nH]4)C[C@@H]2C)CC3)cc(C)c1F (some centres unmarked) in your reply.
Solution: 11.3 nM

Problem: Supply measured EC50 of Cc1cc(-n2nc3c(c2-n2ccn(-c4ccc(N(C)C5CC5)cc4C(F)(F)F)c2=O)[C@H](C)N(C(=O)c2cc4cc(C5CCOC(C)(C)C5)ccc4n2[C@@]2(c4nc(=O)o[nH]4)C[C@@H]2C)CC3)cc(C)c1F (some centres unmarked) in your reply.
Solution: 648 nM

Problem: Supply measured EC50 of Cc1cc(-n2ccn(-c3c4c(nn3-c3cc(C)c(F)c(C)c3)CCN(C(=O)c3cc5cc([C@H]6CCOC(C)(C)C6)ccc5n3[C@@]3(c5nc(=O)o[nH]5)C[C@@H]3C)[C@H]4C)c2=O)ccc1C(=O)N(C)C1CC1 in your reply.
Solution: 11.6 nM

Problem: Supply measured EC50 of Cc1cc(-n2nc3c(c2-n2ccn(-c4cc5c(cc4F)S(=O)(=O)CC5)c2=O)[C@H](C)N(C(=O)c2cc4cc(C5CCOC(C)(C)C5)ccc4n2[C@@]2(c4nc(=O)o[nH]4)C[C@@H]2C)CC3)cc(C)c1F (some centres unmarked) in your reply.
Solution: 10.8 nM

Problem: Supply measured EC50 of Cc1cc(-n2nc3c(c2-n2ccn(-c4ccc(C#N)c(F)c4F)c2=O)[C@H](C)N(C(=O)c2cc4cc(C5CCOC(C)(C)C5)ccc4n2[C@@]2(c4nc(=O)o[nH]4)C[C@@H]2C)CC3)cc(C)c1F (some centres unmarked) in your reply.
Solution: 15.1 nM

Problem: Supply measured EC50 of C[C@H]1c2c(nn(-c3ccc(F)c(C4CC4)c3)c2-n2ccn(-c3ccc4c(cnn4C)c3F)c2=O)CCN1C(=O)c1cc2cc([C@H]3CCOC(C)(C)C3)ccc2n1[C@@]1(c2nc(=O)o[nH]2)C[C@@H]1C in your reply.
Solution: 17.5 nM

Problem: Supply measured EC50 of Cc1cc(-n2nc3c(c2-n2ccn(-c4cccc(C(=O)N(C)C5CC5)c4)c2=O)[C@H](C)N(C(=O)c2cc4cc(C5CCOC(C)(C)C5)ccc4n2[C@@]2(c4nc(=O)o[nH]4)C[C@@H]2C)CC3)cc(C)c1F (some centres unmarked) in your reply.
Solution: 41 nM

Problem: Supply measured EC50 of Cc1cc(-n2nc3c(c2-n2ccn(-c4ccc5c(c4)CCCS5(=O)=O)c2=O)[C@H](C)N(C(=O)c2cc4cc(C5CCOC(C)(C)C5)ccc4n2[C@@]2(c4nc(=O)o[nH]4)C[C@@H]2C)CC3)cc(C)c1F (some centres unmarked) in your reply.
Solution: 9.93 nM
